- Test system: K4 kissing-loop RNA reporter
- protocol.description: apparent KD of K4 kissing-loop reporter; higher = weaker reporter binding
- measurement.setup: Eterna round: R107; input ligand: FMN 200 uM
Returns condition met if the recorded apparent KD of K4 kissing-loop reporter is greater than or equal to 300 nM, and condition not met otherwise.

*Q* Does the sequence UAACUCUUGCAGUGAUGUUGCAAGUAAGCUCAGGAUAUCAGGAAACUGAGAAGGGAGCAUCCUGAGCUUCUGCAAGAGCUCAGAA [KL-SSFMN-A4] have recorded apparent KD of K4 kissing-loop reporter that is 300 nM or more?
*A* condition not met

*Q* Does the sequence UGACUACAUAAGGAAUAAUCCUAGUGAUGUUAGGAUAUGCUGAUAAGCAGAAGGAACGGAGAUCGAAGGAUCUCAUAUGUAGUCU [whbob_Ex_FMNA__2th194] have recorded apparent KD of K4 kissing-loop reporter that is 300 nM or more?
*A* condition not met

====

- Test system: MS2 coat protein
- protocol.description: apparent KD of MS2 coat protein; designed switch direction (-1 OFF switch, 1 ON switch): 1; higher = weaker reporter binding
- measurement.setup: Eterna round: R95; input ligand: FMN 200 uM
Recorded measurements of apparent KD of MS2 coat protein, one per entry
Just the number please, in nM, no unit attached.

1) AGCUAUCGAAAACGAUAGCAAAAGCAUGUACAUGAGGAUCACCCAUGUCAUGUACAGGCUUUUUGCUCGUCUUAAAA [Zipper 23 - 8] (puzzle: Sensor for hsa-mir-208a); 26.4
2) GCAGAACAUGAGGAUCACCCAUGUCUCAAAUAUUGAGGAUAUGGACACGGUAUAUCCGAACCAGAAGGCGAACUGC [SS1 Teenbexe 18] (puzzle: Same State 1); 66.1

*Q* Bench note: what apparent KD of MS2 coat protein did UAGAAACAUGAGGAUCACCCAUGUGGGUUAAACACAGGAUAUCAUGCCACACGAUAGGUAUGAGAAGGGUGACCGU [Sodion] (puzzle: Same State 1) show?
*A* 234

====

- System: MS2 coat protein
- protocol.description: apparent KD of MS2 coat protein; designed switch direction (-1 OFF switch, 1 ON switch): -1; higher = weaker reporter binding
- measurement.setup: input ligand: FMN 200 uM
Returns 1 if the recorded apparent KD of MS2 coat protein is greater than or equal to 0.04 µM, and -1 otherwise.

1) GUUCUGACAGGAUAUACAUGAGGAUCACCCAUGUGCCCUUAGAGAUGCAAAGCAUCUUGUAGAAGGGUCUGAAC [Omei Ex3 Model Bachelor's Dilema v27] (Eterna round: R97, puzzle: Exclusion 3); 1

*Q* Does the sequence CGUCGAAAUGUAGGAUAUCUGCACGUUUAGUGCAGAGAAGGACAUGAGGAUCACCCAUGUAGAUCACGACGAAUUAAUUUAAUU [ENG1/5-C2] (Eterna round: R96, puzzle: Exclusion NG 1) have recorded apparent KD of MS2 coat protein that is 0.04 µM or more?
*A* 1

*Q* Does the sequence UUCACAUGGACAUAAGAUCACAUGAGGAUCACCCAUGUGAAUAACAAGCUUUUUGCUCGUCUUAUGUCCAAUAAUAU [Stov1/14-A3] (Eterna round: R97, puzzle: Sensor, turn-off variant 1) have recorded apparent KD of MS2 coat protein that is 0.04 µM or more?
*A* -1

*Q* Does the sequence GGUCCUGAUGAUUUUCUAUACAUGAGGAUCACCCAUGUAUGUUUAUUUUGUUUUUCGCUUUUUGGUCGUCAAUAAUA [Honey] (Eterna round: R97, puzzle: Sensor, turn-off variant 1) have recorded apparent KD of MS2 coat protein that is 0.04 µM or more?
*A* 1

*Q* Does the sequence UGACGUCAUGUCAGGAUAUAGGCGAUGCGUGUCUUCUAGAAGGGACAUGAGGAUCACCCAUGUAAACUUUUGGU [Eternabot (L1) Solution 56] (Eterna round: R97, puzzle: Brourd's mod of Exclusion 4) have recorded apparent KD of MS2 coat protein that is 0.04 µM or more?
*A* 1

====

- Tested on: MS2 coat protein
- protocol.description: apparent KD of MS2 coat protein; designed switch direction (-1 OFF switch, 1 ON switch): -1; higher = weaker reporter binding
- measurement.setup: input ligand: FMN 200 uM
Recorded measurements of apparent KD of MS2 coat protein, one per entry
Just the number please, in µM, no unit attached.

*Q* Bench note: what apparent KD of MS2 coat protein did UUAAUACAUGUAGGAUAUGCGUGGCGAAGCUAUGCAGAAGGACAUGAGGAUCACCCAUGUCUAUGCGUCCGCGUACGGAUGCAA [JL Eng1 1.21 mod 6] (Eterna round: R96, puzzle: Exclusion NG 1) show?
*A* 0.0184

====

- Tested on: MS2 coat protein
- protocol.description: apparent KD of MS2 coat protein; higher = weaker reporter binding
- measurement.setup: Eterna round: R107; input ligand: theophylline 2 mM
readout.label: apparent KD of MS2 coat protein (nM)
Just the number please, in nM, no unit attached.

Solved entries (count: 5):
1. UAAUGCAGGUCGGCCGCCACUACAAACAUGAGGAUCACCCAUGUAGUUACUGGGUGAAGUGGCAGUAGGACCGGGACCUGCAUAA [Trp-Ms2-T'-M'-T''_Design1]; 1040
2. GGCACCAGGAGAAGGAGCGUGAAGACAUGAGGAUCACCCAUGUAGAGGCCCGUACUGGGUUCGCAGGUAGGUCGCUCCUGGUGCC [#1 Same State - Arginine B Attempt #13 (HarryS)]; 28.7
3. GGGCGCUAUCCCGCGAGGGAUAGCGUUCGACGAGGACCGGUACGGCCGCCACUCGAACGAGUGGGUACAUGAGGAUCACCCAUGU [Gaa]; 33.3
4. ACCGCAUCCGUAUAGGAUGCGGCCCAUGAAGGAGCGUGGGAAACCACAGGUAGGUCGCAUGGAAAACAUGAGGAUCACCCAUGUG [Alien]; 920
5. GUUGGUUUGCGAAGGAGCGGGUAUGUUGUCUACUUGAUCCUAACAUGAGGAUCACCCAUGUCCCAGGUAGGUCGCGCGGGCUUUG [12.aC]; 81

Now take the following sequence into account.
*Q* Bench note: what apparent KD of MS2 coat protein did AAAGUUGAUGAGUUGUGUUUGUGUUCGGAAGGAGCGGGAAUUAUCUCAGGUAGGUCGCCGAACAUGAGGAUCACCCAUGUAUAAA [XArg-A 18 NuV2 original #dotplot2>1] show?
*A* 206

====

Recorded measurements of apparent KD of MS2 coat protein, one per entry
- System: MS2 coat protein
- protocol.description: apparent KD of MS2 coat protein; designed switch direction (-1 OFF switch, 1 ON switch): 1; higher = weaker reporter binding
- measurement.setup: input ligand: none
Just the number please, in nM, no unit attached.

1. GUGCUCGUGUGAGGAUAUGCGGCCGGGUCGGCUGCAGAAGGUACUAUUAUACAUGAGGAUCACCCAUGUCGCUUUUCUCCGGUG [salish99_SSNG1_r04_919] (Eterna round: R96, puzzle: Same State NG 1); 49
2. UUCCCAGCGGGAGGAUAUGGUGCCUUGUUGGUGCUAGAAGGUCCAACAUGAGGAUCACCCAUGUGGGAGUGGUCGAGAGACCUC [SS NG10LRO10] (Eterna round: R96, puzzle: Same State NG 1); 427
3. GGUGGGUUGCUGCCGGCACAUGAGGAUCACCCAUGUUUUGGGAAGGAUAUGGUACCUAUUUGGUGCCAGAAGGUCCCGUUGGUG [salish99_SSNG3_r04_710] (Eterna round: R96, puzzle: Same State NG 3); 480

Now take the following sequence into account.
*Q* Bench note: what apparent KD of MS2 coat protein did GGAAUAUUUACAGGAUAUGAUUUGUAAAUUCGAUCAGAAGGGUAGAUGUCUUACACGAUUUGUUACAUGAGGAUCACCCAUGUU [SameState NG1 #10] (Eterna round: R96, puzzle: Same State NG 1) show?
*A* 86.3

====

Recorded measurements of apparent KD of K4 kissing-loop reporter, one per entry
- Test system: K4 kissing-loop RNA reporter;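 also: bound reporter read as fluorescence of individual clusters on recovered sequencing chips by microscopy, with normalized cluster intensities fitted with a binding model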
- protocol.description: apparent KD of K4 kissing-loop reporter; higher = weaker reporter binding
- measurement.setup: Eterna round: R107; input ligand: tryptophan 2.4 mM
Just the number please, in nM, no unit attached.

Solved entries (count: 5):
1. AUUAAUAACUGAGGAUAUCGUUUUACUGUAGUGAUGUUACAGAAAAUGCACAUUAUAAUUUCUAUUCGAGAAGGCAGAAUAAUUA [JR_ExcFMNB_Sub013]; 65.4
2. AGAAUAAUAAAUUUGGAGUGAUGUUCCGGACGAGGACCGGUACGGCCGCCACUCGAAAGCAGUCUGCGAAAGCAGACUGCAAGGA [Tesla SS Tryp A 1]; 645
3. UCCUACGAGGUAACGUGGAUAUCUCGUUGCAAGGAUAUCUGGAAACAGAGAAGGUGCUACAUUAUCGGCAGUGAUGUUGCUGACC; 529
4. UAGGUUUAAUCGGCCGCCACUAUCAGAGCGCCAGUGAUGUUGGAGUAACGAUCGUGGCGAGUUAAUAGGACCGGGAUUCAACACA [Velazaer]; 156
5. AAGCGUGUGGCGGCCGCCACUAGUCUCCAGUGAUGUUGGAGAGAUCACGUAAGUGAUCUCCGACAUAGGACCGGGCCAUAUGGAA [Same State - Tryptophan B (Freestyle 23)]; 214

*Q* What measured apparent KD of K4 kissing-loop reporter is associated with ACCUACGAUCACAAUAGUGAUUGUAGGAACUAGGAUAUGCUGAAAAGCAGAAGGAGUGAUGUUCCGUCAUGAAUAACAUGACAAA [FmnAX 5 #OpenEnded #K4Late #CoaxialStacking] on K4 kissing-loop RNA reporter?
*A* 336

Recorded values, source the supplement of paper PMC9170038.
